Exercise: for every item that follows, state its recorded hIL-23 (pSTAT3) antagonist IC50.
Biological target: T1, human IL-23R endogenously expressed on DB cells (human, UniProt Q5VWK5 24-629)
T1 sequence (looked up): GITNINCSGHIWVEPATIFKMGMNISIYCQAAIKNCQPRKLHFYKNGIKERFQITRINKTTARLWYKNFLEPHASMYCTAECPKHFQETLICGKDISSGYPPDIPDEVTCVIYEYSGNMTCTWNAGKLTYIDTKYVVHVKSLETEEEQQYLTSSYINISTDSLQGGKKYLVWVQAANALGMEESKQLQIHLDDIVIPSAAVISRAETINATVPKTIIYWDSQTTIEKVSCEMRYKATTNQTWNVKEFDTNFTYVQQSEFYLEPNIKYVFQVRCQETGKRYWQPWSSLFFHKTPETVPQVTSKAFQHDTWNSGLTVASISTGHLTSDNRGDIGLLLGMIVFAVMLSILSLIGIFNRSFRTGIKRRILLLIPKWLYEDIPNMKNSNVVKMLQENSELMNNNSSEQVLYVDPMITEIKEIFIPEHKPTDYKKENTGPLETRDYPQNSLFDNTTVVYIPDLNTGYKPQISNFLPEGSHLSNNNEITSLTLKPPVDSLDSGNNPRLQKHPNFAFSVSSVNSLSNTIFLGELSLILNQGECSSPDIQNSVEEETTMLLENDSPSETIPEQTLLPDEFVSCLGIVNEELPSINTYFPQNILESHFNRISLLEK
Assay: cell-based or functional assay
*1 amine or outer side, *2 acyl side, *3 side chain or, on linkers, in order; H or OH if unused. Bridges are numbered along the chain shown (N, C = ends). Primed or numbered codes have the meaning given here. [ ]: non-standard residue; d: D form. 4‑Aminomethyl‑phenylacetyl = 4-aminomethyl-phenylacetyl unit, its amine closes the lactam, O=C(Cc1ccc(CN[*:1])cc1)[*:2]; 1,3‑dibromopropan‑2‑one″ = linker forming 1,3-dithio-propan-2-one bridge -SCH2C(=O)CH2S- between two Cys; 2Nal = N[C@@H](Cc1ccc2ccccc2c1)C(=O)O; AEF = NCCOc1ccc(C[C@H](N)C(=O)O)cc1; 3Pal = N[C@@H](Cc1cccnc1)C(=O)O; αMeL = CC(C)C[C@](C)(N)C(=O)O; Dab = NCC[C@H](N)C(=O)O
Enter the number, and then the unit.

input: Using the record for KGWQE[AEF][2Nal][αMeL]E[Dab][3Pal]-NHMe (lactam 1-9, N-5; SMILES CNC(=O)[C@H](Cc1cccnc1)NC(=O)[C@H](CCN)NC(=O)[C@@H]1CCC(=O)NCCCC[C@@H]2NC(=O)CC[C@H](NC(=O)[C@H](CCC(N)=O)NC(=O)[C@H](Cc3c[nH]c4ccccc34)NC(=O)CNC2=O)C(=O)N[C@@H](Cc2ccc(OCCN)cc2)C(=O)N[C@@H](Cc2ccc3ccccc3c2)C(=O)N[C@@](C)(CC(C)C)C(=O)N1) [Compound 44] , report its hIL-23 (pSTAT3) antagonist IC50.
output: 15 nM

input: Item under review: [4‑Aminomethyl‑phenylacetyl]SCWQC[AEF][2Nal][αMeL]E[dR]-NH2 (lactam N-10; linker 3-6 via 1,3‑dibromopropan‑2‑one″) [Ref 80] . Reported hIL-23 (pSTAT3) antagonist IC50?
output: 11 nM

Now, please, on to the next binder.
input: Which hIL-23 (pSTAT3) antagonist IC50 value is on record for [4‑Aminomethyl‑phenylacetyl]SCWQC[AEF][2Nal][αMeL]E[Dab]-NH2 (lactam N-10; linker 3-6 via 1,3‑dibromopropan‑2‑one″) [Ref 82] ?
output: 11 nM

These data points were gathered from patent EP4471048A1.
